Ref: patent US8871753B2

# system: human JAK2 (a.a. 828-1132) (Homo sapiens, UniProt O60674)
# Construct: JAK2 (a.a. 828-1132); His tag (N); made in house; host or cells: insect cells (baculovirus)
# Sequence (O60674 828-1132): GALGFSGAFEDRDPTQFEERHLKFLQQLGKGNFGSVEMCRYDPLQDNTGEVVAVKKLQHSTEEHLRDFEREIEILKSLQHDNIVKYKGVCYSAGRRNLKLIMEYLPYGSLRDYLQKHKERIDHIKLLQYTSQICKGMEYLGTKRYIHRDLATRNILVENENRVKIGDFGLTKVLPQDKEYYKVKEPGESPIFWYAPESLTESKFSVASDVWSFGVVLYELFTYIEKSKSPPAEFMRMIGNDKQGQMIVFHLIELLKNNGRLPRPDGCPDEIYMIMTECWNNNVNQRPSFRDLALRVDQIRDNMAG
# experiment.description: In vitro JAK kinase assay (HTRF, phosphorylation of a biotinylated peptide), JAK2
# Type: biochemical
# condition.set: Table B1
Counter-ions that a name gives are not always drawn.
Could you mark each record yes (1) if its IC50 falls strictly under 5 nM, and no (0) if it equals or exceeds it?

[
  {
    "compound": "COc1cccc(C(=O)Nc2ccc3cc2CCc2cccc(c2)Nc2ncc(Cl)c(n2)N3)c1 [Example B66, trifluoroacetate]",
    "class.label": "yes (1)"
  },
  {
    "compound": "CCNC(=O)Nc1ccc2cc1CCc1cccc(c1)Nc1ncc(Cl)c(n1)N2 [Example B115, trifluoroacetate]",
    "class.label": "no (0)"
  },
  {
    "compound": "O=C(Nc1ccc(CCO)cc1)c1cc2cc(c1)Nc1nc(ncc1Cl)Nc1cccc(c1)CC2 [Example B10, trifluoroacetate]",
    "class.label": "no (0)"
  },
  {
    "compound": "O=C(Nc1ccccc1Cl)Nc1ccc2cc1CCc1cccc(c1)Nc1ncc(Cl)c(n1)N2 [Example B84, trifluoroacetate]",
    "class.label": "yes (1)"
  },
  {
    "compound": "O=C(Nc1ccc2cc1CCc1cccc(c1)Nc1ncc(Cl)c(n1)N2)c1ccncc1 [Example B39, bis(trifluoroacetate)]",
    "class.label": "yes (1)"
  },
  {
    "compound": "N#Cc1cccc(S(=O)(=O)Nc2ccc3cc2CCc2cccc(c2)Nc2ncc(Cl)c(n2)N3)c1 [Example B153, trifluoroacetate]",
    "class.label": "yes (1)"
  },
  {
    "compound": "O=C(Nc1ccc2cc1CCc1cccc(c1)Nc1ncc(Cl)c(n1)N2)c1ccc(C(F)(F)F)cc1 [Example B75, trifluoroacetate]",
    "class.label": "no (0)"
  },
  {
    "compound": "Cc1noc(C)c1C(=O)Nc1ccc2cc1CCc1cccc(c1)Nc1ncc(Cl)c(n1)N2 [Example B40, trifluoroacetate]",
    "class.label": "yes (1)"
  },
  {
    "compound": "Clc1cccc(N2CCN(Cc3cc4cc(c3)Nc3nc(ncc3Cl)Nc3cccc(c3)CC4)CC2)n1 [Example B217, tris(trifluoroacetate)]",
    "class.label": "no (0)"
  },
  {
    "compound": "O=C(Nc1nnn[nH]1)Nc1ccc2cc1CCc1cccc(c1)Nc1ncc(Cl)c(n1)N2 [Example B251, trifluoroacetate]",
    "class.label": "no (0)"
  },
  {
    "compound": "CC(=O)Nc1ccc2cc1CCc1cccc(c1)Nc1ncc(Cl)c(n1)N2 [Example B26, trifluoroacetate]",
    "class.label": "yes (1)"
  },
  {
    "compound": "CCCS(=O)(=O)NCCNC(=O)Nc1ccc2cc1CCc1cccc(c1)Nc1ncc(Cl)c(n1)N2 [Example B326, trifluoroacetate]",
    "class.label": "yes (1)"
  },
  {
    "compound": "O=C(NCCNC(=O)c1ccccc1)Nc1ccc2cc1CCc1cccc(c1)Nc1ncc(Cl)c(n1)N2 [Example B189, trifluoroacetate]",
    "class.label": "no (0)"
  },
  {
    "compound": "CC(C)NC(=O)NCCNC(=O)Nc1ccc2cc1CCc1cccc(c1)Nc1ncc(Cl)c(n1)N2 [Example B188, trifluoroacetate]",
    "class.label": "no (0)"
  },
  {
    "compound": "CC(=O)NCCNC(=O)Nc1ccc2cc1CCc1cccc(c1)Nc1ncc(Cl)c(n1)N2 [Example B186, trifluoroacetate]",
    "class.label": "no (0)"
  },
  {
    "compound": "O=C(Nc1ccc(OC(F)(F)F)cc1)Nc1ccc2cc1CCc1cccc(c1)Nc1ncc(Cl)c(n1)N2 [Example B132, trifluoroacetate]",
    "class.label": "no (0)"
  },
  {
    "compound": "O=C(Nc1ccc2cc1CCc1cccc(c1)Nc1ncc(Cl)c(n1)N2)c1cccc(F)c1 [Example B48, trifluoroacetate]",
    "class.label": "yes (1)"
  },
  {
    "compound": "Clc1cnc2nc1Nc1cc(cc(CN3CCN(Cc4cc(Br)cs4)CC3)c1)CCc1cccc(c1)N2 [Example B196, tris(trifluoroacetate)]",
    "class.label": "yes (1)"
  },
  {
    "compound": "O=C(c1coc(Nc2ccc3cc2CCc2cccc(c2)Nc2ncc(Cl)c(n2)N3)n1)N1CCN2CCCC2C1 (stereo not drawn)",
    "class.label": "no (0)"
  },
  {
    "compound": "Cn1cncc1C(=O)Nc1ccc2cc1CCc1cccc(c1)Nc1ncc(Cl)c(n1)N2 [Example B51, bis(trifluoroacetate)]",
    "class.label": "yes (1)"
  },
  {
    "compound": "O=C(Nc1ccc2cc1CCc1cccc(c1)Nc1ncc(Cl)c(n1)N2)Nc1ccccc1OC(F)(F)F [Example B131, trifluoroacetate]",
    "class.label": "no (0)"
  },
  {
    "compound": "O=C(NCCN1CCNCC1)Nc1ccc2cc1CCc1cccc(c1)Nc1ncc(Cl)c(n1)N2 [Example B260, trihydrochloride]",
    "class.label": "no (0)"
  },
  {
    "compound": "O=S(=O)(Nc1ccc2cc1CCc1cccc(c1)Nc1ncc(Cl)c(n1)N2)c1ccccc1C(F)(F)F [Example B164, trifluoroacetate]",
    "class.label": "no (0)"
  },
  {
    "compound": "CC(C)c1ccccc1NC(=O)Nc1ccc2cc1CCc1cccc(c1)Nc1ncc(Cl)c(n1)N2 [Example B104, trifluoroacetate]",
    "class.label": "no (0)"
  }
]
